System: Mus musculus
Test: Neurotoxicity in Swiss albino mouse assessed as minimal motor impairment at 300 mg/kg after 4 hrs by rotarod test
Format: toxicity, organism-based
Parameters: dose 300 mg/kg
Details: in vivo
measurement-type: Activity

> print(dat)
                           structure.string  measurement.type  meas.value
1  CCN1CCc2c(c(C(C)(C)C)nn2C(=O)Nc2ccc(C)cc2C)C1          Activity   Non-toxic
2    CCN1CCc2c(c(C)nn2C(=O)Nc2ccc(Br)cc2)C1          Activity   Non-toxic
3  COc1ccc2c(c1)c(CC(=O)O)c(C)n2C(=O)c1ccc(Cl)cc1          Activity   Non-toxic

====

Documented Activity across a set of compounds
Tested on: Rattus norvegicus
Experiment: Antinociceptive activity in Wistar rat chronic constriction injury model assessed as reversal of spontaneous pain response at 100 mg/kg, ip after 120 mins (reference value: 4.5 +/- 0.2%)
Format: functional
Details: route intraperitoneal
Give the value; after it, write the unit.

Example entries and their recorded answers appear below.
> print(dat)
                           structure.string  meas.value
1  CCN1CCc2c(c(C(C)(C)C)nn2C(=O)Nc2ccc(Br)cc2)C1       83.2%
2  CCN1CCc2c(c(C(C)(C)C)nn2C(=O)Nc2cc(C)ccc2C)C1       12.4%
3    CCN1CCc2c(c(C)nn2C(=O)Nc2cc(C)ccc2C)C1       27.7%
4    CCN1CCc2c(c(C)nn2C(=O)Nc2ccc(Cl)cc2)C1       27.4%
5  CCN1CCc2c(c(C(C)(C)C)nn2C(=O)Nc2cccc(C(F)(F)F)c2)C1       75.2%

Query: Return Activity (reported value) for this compound: CCN1CCc2c(c(C(C)(C)C)nn2C(=O)Nc2c(C)cccc2C)C1
Response: 88.5%

Query: # return recorded Activity for input CCN1CCc2c(c(C)nn2C(=O)Nc2ccc(Br)cc2)C1
Response: 63.6%

Query: Tell me Activity reported for CCN1CCc2c(c(C)nn2C(=O)Nc2ccc(F)cc2F)C1
Response: 72.8%

Query: Provide Activity value for the following compound: CCN1CCc2c(c(C(C)(C)C)nn2C(=O)Nc2cc(C)ccc2F)C1
Response: 53.9%

Query: Could you please provide reported Activity for CCN1CCc2c(c(C(C)(C)C)nn2C(=O)Nc2ccc(Cl)cc2)C1 ? Thanks!
Response: 12.5%

Query: Using known records, supply Activity for CCN1CCc2c(c(C)nn2C(=O)Nc2ccc(C)cc2C)C1
Response: 64.4%

====

Tested on: Rattus norvegicus
Assay: Antinociceptive activity in Wistar rat chronic constriction injury model assessed as reversal of tactile allodynia at 100 mg/kg, ip after 120 mins (reference value: 4.1 +/- 2.1%)
Type: functional
Settings: route intraperitoneal
# Activity values compiled below
Express your answer in %, writing the number without its unit.

> print(dat)
                           structure.string  system.under.test  meas.value
1    CCN1CCc2c(c(C)nn2C(=O)Nc2ccc(F)cc2F)C1  Rattus norvegicus          67
2  CCN1CCc2c(c(C(C)(C)C)nn2C(=O)Nc2ccc(Cl)cc2)C1  Rattus norvegicus        12.8
3  CCN1CCc2c(c(C(C)(C)C)nn2C(=O)Nc2ccc(F)cc2F)C1  Rattus norvegicus        51.7
4                       NCC1(CC(=O)O)CCCCC1  Rattus norvegicus        50.7
5    CCN1CCc2c(c(C)nn2C(=O)Nc2ccc(Cl)cc2)C1  Rattus norvegicus        19.7

Query: Give Activity for the following compound: CCN1CCc2c(c(C)nn2C(=O)Nc2cc(C)ccc2F)C1
Response: 13.7
